The values you see were collected from patent US9006178.

# measurement_target: T1, human GLP-1 receptor (human, UniProt P43220 24-463)
# T1 construct: whole, on cells; also called hGLP-1
# method_notes: SPA displacement of [125I]-GLP-1(7-36)NH2 from human GLP-1 receptor membranes; IC50 at 2.0% HSA divided by IC50 at 0.005% HSA
# Procedure: 25 ul (microliter) of test compounds are added to Optiplate. HSA ("high albumin" experiment containing 2% HSA), or buffer ("low albumin" experiment containing 0.005% HSA), was added (50 ul). 5-10 ug protein/sample was added (50 ul) corresponding to 0.1-0.2 mg protein/ml (to be preferably optimised for each membrane preparation). […] The plates were centrifuged (1500 rpm, 10 min) and counted in Topcounter.
*1 amine or outer side, *2 acyl side, *3 side chain or, on linkers, in order; H or OH if unused. Where no end group is shown, it is not given here. Side-chain parts run from the residue outwards. [ ]: non-standard residue; d: D form. The star is where a group is joined. Dodecanoyl(12-OPh(4-COOH)) = O=C(O)c1ccc(OCCCCCCCCCCCC(=O)*)cc1; Decanoyl(10-(4-HOOC-PhO)) = O=C(O)c1ccc(OCCCCCCCCCC(=O)*)cc1; C16 diacid = O=C(O)CCCCCCCCCCCCCCC(=O)*; γGlu = O=C(O)[C@H](CCC(=O)[*:2])N[*:1]; Desaminohistidyl = O=C(CCc1c[nH]cn1)*; εLys = N[C@@H](CCCCN[*:1])C(=O)[*:2]; AEEA = NCCOCCOCC(=O)O; Aib = CC(C)(N)C(=O)O
observation_type: ratio [(IC50/nM) high HSA]/[(IC50/nM) low HSA]

| binder | result |
| --- | --- |
| H[Aib]EGTFTSDVSK([εLys-γGlu-C16 diacid])YLEGQAAK([εLys-γGlu-C16 diacid])EFIAWLVQGRG (Double-acylated GLP-1 analogue; positions are counted with His as no) [N^ε18-[(2S)-2-amino-6-[[(4S)-4-carboxy-4-(15-carboxypentadecanoylamino)butanoyl]amino]hexanoyl], …] | > 10 |

# input Would you mind telling me what ratio [(IC50/nM) high HSA]/[(IC50/nM) low HSA] value was observed for [Desaminohistidyl][Aib]EGTFTSDVSK([AEEA-εLys-AEEA-γGlu-Decanoyl(10-(4-HOOC-PhO))])YLEEQAAK([AEEA-εLys-AEEA-γGlu-Decanoyl(10-(4-HOOC-PhO))])EFIAWLVQGRG (Double-acylated GLP-1 analogue; positions are counted with residue 1 of the entry as no) ?
# output > 10

# input Note, next up: H[Aib]EGTFTSDVSK([εLys-AEEA-AEEA-γGlu-Dodecanoyl(12-OPh(4-COOH))])YLEGQAAK([εLys-AEEA-AEEA-γGlu-Dodecanoyl(12-OPh(4-COOH))])EFIAWLVQGRG (Double-acylated GLP-1 analogue; positions are counted with His as no)
# output > 10

# input Note, next up: H[Aib]EGTFTSDVSK([εLys-εLys-γGlu-C16 diacid])YLEGQAAK([εLys-εLys-γGlu-C16 diacid])EFIAWLVQGRG (Double-acylated GLP-1 analogue; positions are counted with His as no)
# output > 10
